The following compounds are listed with their measured IC90 values.
tested on: chloroquine-resistant strain FcB1 of P. falciparum; assay: Anti-Plasmodium activity, [3H]hypoxanthine microdilution on asynchronous cultures; format: cell-based, Plasmodium falciparum; conditions: Plasmodium falciparum, 48 h; Figure 2, series A (amide linkage); strain FcB1; 90% growth inhibition; read-out: CI90 (the source's name)
Respond numerically; units are µM and should not be typed.

As a guide, the following entries are already answered.
[
  {
    "compound": "CCCCCCCCCCCCCCCC(=O)N[C@H](CO)[C@H](O)c1ccc([N+](=O)[O-])cc1 [AD2495]",
    "units text": "µM",
    "IC90": 20.3
  },
  {
    "compound": "CCCCCCCCCCCC(=O)Nc1ccc([C@@H](O)[C@H](N)CO)cc1 [AD2648]",
    "units text": "µM",
    "IC90": 9.6
  },
  {
    "compound": "CCCCCCCCCCCCCC(=O)N[C@H](CO)[C@H](O)c1ccc([N+](=O)[O-])cc1 [AD2557]",
    "units text": "µM",
    "IC90": 37.8
  },
  {
    "compound": "CCCCCCCC(=O)N[C@H](CO)[C@H](O)c1ccc([N+](=O)[O-])cc1 [AD2494]",
    "units text": "µM",
    "IC90": 70
  },
  {
    "compound": "CCCCCCCCCCCCCCCC(=O)N[C@H](CO)[C@H](O)c1ccc(N)cc1 [AD2623]",
    "units text": "µM",
    "IC90": 81.3
  }
]

Short answer please: IC90, chloroquine-resistant strain FcB1 of P. falciparum, entry CCCC(=O)N[C@H](CO)[C@H](O)c1ccc([N+](=O)[O-])cc1 [AD2583]
67.4

Sourced from paper PMC539285
